STUDY_SYSTEM: T1, corticotropin releasing factor 2 receptor; note: reference of the scale not given here
T1 sequence (Q13324 whole entry, species assumed, looked up): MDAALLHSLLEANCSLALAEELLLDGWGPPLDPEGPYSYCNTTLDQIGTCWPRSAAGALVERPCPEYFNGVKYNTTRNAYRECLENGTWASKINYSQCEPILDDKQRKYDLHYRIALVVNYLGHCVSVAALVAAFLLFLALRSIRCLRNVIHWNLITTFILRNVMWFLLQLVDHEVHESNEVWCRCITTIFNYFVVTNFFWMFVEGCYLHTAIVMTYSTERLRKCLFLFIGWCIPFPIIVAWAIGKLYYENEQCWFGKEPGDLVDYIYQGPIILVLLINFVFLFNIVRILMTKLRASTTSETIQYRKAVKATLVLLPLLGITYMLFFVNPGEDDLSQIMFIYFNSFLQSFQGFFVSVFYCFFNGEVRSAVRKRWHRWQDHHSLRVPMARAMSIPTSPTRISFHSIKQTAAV
METHOD_SUMMARY: cell-based or functional assay
Ends that are not written are not given here.
PARAMETER: CRF2R Emax (%)
Expressed in %, but write only the number.

| BINDER | UNIT_DESCRIPTOR | NUMERIC_RESULT |
| --- | --- | --- |
| SQEPPISLDLPLQLLREVLEMTKADQLAQQAHSNRKLLDIA-NH2 [SEQ ID NO 95] | % | 8.25 |
| ZGPPISIDLPNYLLRKMIEIEKQEKEKQQAANNRLLLDTI (C-terminal amide) [SEQ ID NO 64] | % | 94 |
| ZGPPISIDLPTYLLRKMIEIEKQEKEKQQATTNARILARV (C-terminal amide) [SEQ ID NO 151] | % | 96 |
| IVLSLDVPIGLLQILLEQEKEKKRKETNARILARV-NH2 [SEQ ID NO 132] | % | 88 |
| ZGPPISIDLPTTLLRKMIEIEKQEKEKQQAANNRLLLDTI (C-terminal amide) [SEQ ID NO 42] | % | 88 |

So for ZGPPISIDLPIALLRKMIEIEKQEKEKQQAANNRLLLDTI (C-terminal amide) [SEQ ID NO 47] , the logged CRF2R Emax turned out to be 66

Data point: ZGPPISIDLPPYLLRKMIEIEKQEKEKQQAANNRLLLDTI (C-terminal amide) [SEQ ID NO 57] ; CRF2R Emax = 46
